Assay: chemical genetic growth profiling, strain panel (AID 1159580);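 also: tested at 20 µM; growth read once vehicle control cultures reached saturation at 30 °C; 1 = growth at the plate median or of vehicle wells; lower values mean less growth of the strain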
Details: S. cerevisiae deletion strains, growth OD, locus YJL129C, strain trk1
Among all 5,500 compounds or so, about 2,000 (36%) were called active. Another 18% or so got no clear call; they are omitted. Rule as the data show it: active = normalized growth mostly below about 0.91 (no sharp cut-off); inconclusive = no clear call, values can overlap the other calls; inactive = mostly above about 0.92. This is one part of the list.
Write down the outcome that applies. Available outcomes: active, inactive

Would you please look over these solved cases?
Ask: Which outcome was entered for the compound `CN(C)CCC=C1c2ccccc2C=Cc2ccccc21` in this test?
Result: inactive

Ask: Which outcome was entered for the compound CC(=O)O[C@H]1C[C@@]2(C)[C@H](c3ccoc3)OC(=O)[C@H]3O[C@]32[C@@]2(C)C1[C@]1(C)C(C[C@H]2OC(C)=O)C(C)(C)[C@H](OC(C)=O)C[C@@H]1OC(C)=O (stereo partly specified) in this test?
Result: inactive

Ask: Which outcome was entered for the compound `O=c1c(-c2ccccc2)coc2cc(O)cc(O)c12` in this test?
Result: inactive

Ask: Which outcome was entered for the compound `COc1ccc(-c2coc3cc(OC(C)=O)cc(OC(C)=O)c3c2=O)cc1` in this test?
Result: active

Ask: Which outcome was entered for the compound `CNCCC=C1c2ccccc2CCc2ccccc21` in this test?
Result: inactive

New cases:
Ask: Which outcome was entered for the compound `CN(C)CCC=C1c2ccccc2CCc2ccccc21` in this test?
Result: inactive

* * *

Assay: chemical genetic growth profiling, strain panel (AID 1159580)
Conditions: S. cerevisiae deletion strains, growth OD, locus YBR021W, strain FUR4, stronger effect = lower value
About 2,000 (36%) of roughly 5,500 compounds were called active. Not shown: some 18% with an inconclusive outcome. This is one part of the list.
In this section, each of the compounds is paired with its reported normalized growth.
I'd appreciate a reply containing only the number, no unit.

Here are 3 compounds together with their reported answers.
Notebook: `CC1=CCc2c(cc3oc(C)cc(=O)c3c2O)OC1` , normalized growth read as 0.856

Notebook: `C[N+]1(CCCCC[N+]2(C)CCCC2)CCCC1` , normalized growth read as 1.01

Notebook: `Cc1cc(=O)c2c(o1)-c1c(cc(O)c(O)c1C(=O)O)OC2` , normalized growth read as 0.96

New cases:
Notebook: `CCCCCCc1ccc(O)cc1O` , normalized growth read as 0.977

Notebook: `CN(C)CC/C=C1/c2ccccc2COc2ccccc21` , normalized growth read as 0.991

Notebook: `CC(=O)Nc1ccc(O)cc1` , normalized growth read as 1.09

Notebook: CC1(C)O[C@@H]2CC3C4CCC5=CC(=O)C=C[C@]5(C)[C@@]4(F)[C@@H](O)C[C@]3(C)[C@]2(C(=O)CO)O1 (stereo partly specified) , normalized growth read as 0.946

* * *

Assay: chemical genetic growth profiling, strain panel (AID 1159580)
Details: S. cerevisiae deletion strains, growth OD, locus YGL253W, strain hxk2
Screen size: about 5,500 compounds; about 2,000 (36%) were called active. Not shown: some 18% with an inconclusive outcome. Cut-off read from the data, not from the text of the source: active = normalized growth mostly below about 0.91 (no sharp cut-off); inconclusive = no clear call, values can overlap the other calls; inactive = mostly above about 0.92. Some of the results follow.
Write down the outcome that applies. Available outcomes: true (1) (active), false (0) (inactive)

Ask: Which outcome was entered for the compound CC(=O)O[C@@H]1CC2C(C)(C)C(=O)CC[C@]2(C)C2CC[C@@]3(C)[C@H](c4ccoc4)OC(=O)C4OC43[C@@]21C (stereo not given in full) in this test?
Result: true (1)

Ask: Which outcome was entered for the compound `COc1cc([C@@H]2c3cc4c(cc3[C@H](OC(C)=O)[C@H]3COC(=O)[C@H]23)OCO4)cc(OC)c1OC` in this test?
Result: false (0)

Ask: Which outcome was entered for the compound `COc1c2c(cc3c1OCO3)CC[N+](C)=C2` in this test?
Result: false (0)

Ask: Which outcome was entered for the compound `Nc1nc(N)c2nc(-c3ccccc3)c(N)nc2n1` in this test?
Result: false (0)

Ask: Which outcome was entered for the compound OC1C(O)C(O)C(O)C(O)C1O (stereo not given) in this test?
Result: false (0)

Ask: Which outcome was entered for the compound `S=c1ccss1` in this test?
Result: true (1)

New cases:
Ask: Which outcome was entered for the compound `COc1ccc(-c2coc3cc(OC(C)=O)cc(OC(C)=O)c3c2=O)cc1` in this test?
Result: false (0)

Ask: Which outcome was entered for the compound `COc1cc([C@@H]2c3cc4c(cc3[C@H](O)[C@H]3COC(=O)[C@@H]23)OCO4)cc(OC)c1OC` in this test?
Result: false (0)

Ask: Which outcome was entered for the compound CC[N+]1(C)CCCC(OC(=O)C(O)(c2ccccc2)c2ccccc2)C1 (stereo not given) in this test?
Result: false (0)

Ask: Which outcome was entered for the compound `CC(C)=CCc1c2c(c(O)c3c(=O)c(O)c(-c4ccccc4)oc13)C=CC(C)(C)O2` in this test?
Result: true (1)

* * *

Assay: chemical genetic growth profiling, strain panel (AID 1159580)
Settings: S. cerevisiae deletion strains, growth OD, locus YFR003C, strain YPI1, stronger effect = lower value
The whole screen tested about 5,500 compounds, of which about 2,000 (36%) were called active. Inconclusive results (about 18%) are left out. Some of the results follow.
In this section, each of the molecules is paired with its reported normalized growth.

Notebook: `CN(C(=O)N(C)c1ccc(Cl)cc1C(=O)c1ccccc1Cl)c1ccc(Cl)cc1C(=O)c1ccccc1Cl` , normalized growth read as 0.85 (active)

Notebook: `CCCc1cnc(N2CCN(CC(=O)N(c3ccccc3)C3CCCCC3)CC2)nc1` , normalized growth read as 0.988 (inactive)

Notebook: `CCn1nc(C)cc1-c1nnc(Sc2ncc([N+](=O)[O-])s2)n1C` , normalized growth read as 0.971 (inactive)

For the next question, use this molecule.
Notebook: `Cc1ccc(C(O)(c2ccccc2)c2ccccc2)c2ccccc12` , normalized growth read as 0.988 (inactive)

* * *

Assay: chemical genetic growth profiling, strain panel (AID 1159580);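 also: tested at 20 µM; growth read once vehicle control cultures reached saturation at 30 °C; 1 = growth at the plate median or of vehicle wells; lower values mean less growth of the strain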
Conditions: S. cerevisiae deletion strains, growth OD, locus YDR392W, strain spt3
Hit rate of the full screen: of about 5,500 compounds, about 2,000 (36%) were called active. Another 18% or so got no clear call; they are omitted. Rule as the data show it: active = normalized growth mostly below about 0.91 (no sharp cut-off); inconclusive = no clear call, values can overlap the other calls; inactive = mostly above about 0.92. This is one part of the list.
Write down the outcome that applies. Available outcomes: active, inactive

Ask: Which outcome was entered for the compound `CCn1cc(C(=O)O)c(=O)c2cc(F)c(N3CCNCC3)cc21` in this test?
Result: inactive

Ask: Which outcome was entered for the compound `CNCCC=C1c2ccccc2CCc2ccccc21` in this test?
Result: inactive

Ask: Which outcome was entered for the compound `CC(=O)O.CC(=O)O.[Cd]` in this test?
Result: active

Ask: Which outcome was entered for the compound `CN(C)CCC=C1c2ccccc2CCc2ccccc21` in this test?
Result: inactive

Ask: Which outcome was entered for the compound `C/C(=C\C(=O)OCCCCCCCCC(=O)O)C[C@@H]1OC[C@H](C[C@@H]2O[C@H]2[C@@H](C)[C@H](C)O)[C@@H](O)[C@H]1O` in this test?
Result: inactive

New cases:
Ask: Which outcome was entered for the compound COc1cc([C@@H]2c3cc4c(cc3C(O[C@@H]3O[C@@H]5CO[C@@H](c6cccs6)OC5[C@H](O)[C@H]3O)C3COC(=O)[C@@H]32)OCO4)cc(OC)c1O (stereo partly specified) in this test?
Result: inactive

* * *

Experiment: chemical genetic growth profiling, strain panel (AID 1159580);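 also: tested at 20 µM; growth read once vehicle control cultures reached saturation at 30 °C; 1 = growth at the plate median or of vehicle wells; lower values mean less growth of the strain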
Settings: S. cerevisiae deletion strains, growth OD, locus YDR297W, strain sur2, stronger effect = lower value
Screen size: about 5,500 compounds; about 2,000 (36%) were called active. Roughly 18% stayed inconclusive and do not appear here. The list shows a part of the results.
QUANTITY_MEASURED: normalized growth
I'd appreciate a reply containing only the number, no unit.

Here are 3 compounds together with their reported answers.
Notebook: CC[C@]12C=CCN3CC[C@@]4(c5ccc(OC)cc5N(C)C4[C@@](O)(C(=O)OC)[C@@H]1OC(C)=O)[C@@H]32 (stereo partly drawn) , normalized growth read as 0.996

Notebook: `S=c1ccss1` , normalized growth read as 0.993

Notebook: C=CCCCCCCCCCCCC(O)CC(O)CO (stereo not drawn) , normalized growth read as 0.996

For the next question, use this compound.
Notebook: `CN(C)CCC=C1c2ccccc2CCc2ccccc21` , normalized growth read as 0.975

* * *

Assay: chemical genetic growth profiling, strain panel (AID 1159580);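 also: tested at 20 µM; growth read once vehicle control cultures reached saturation at 30 °C; 1 = growth at the plate median or of vehicle wells; lower values mean less growth of the strain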
Conditions: S. cerevisiae deletion strains, growth OD, locus YHR013C, strain ard1
Among all 5,500 compounds or so, about 2,000 (36%) were called active. Inconclusive results (about 18%) are left out. Cut-off read from the data, not from the text of the source: active = normalized growth mostly below about 0.91 (no sharp cut-off); inconclusive = no clear call, values can overlap the other calls; inactive = mostly above about 0.92. This is one part of the list.
Write down the outcome that applies. Available outcomes: active, inactive

Would you please look over these solved cases?
Ask: Which outcome was entered for the compound `O=C1CC[C@]23C=CC(=O)NCCCCNCCCNC(=O)/C=C/c4ccc(c2c4)O[C@@H]3C1` in this test?
Result: active

Ask: Which outcome was entered for the compound `COc1cc([C@@H]2c3cc4c(cc3[C@H](O)[C@H]3COC(=O)[C@@H]23)OCO4)cc(OC)c1OC` in this test?
Result: inactive

Ask: Which outcome was entered for the compound CCOC(=O)C1C(C=C(C)C)C1(C)C (centres undefined) in this test?
Result: inactive

Ask: Which outcome was entered for the compound `COc1ccc(-c2cc(=O)c3ccccc3o2)cc1OC` in this test?
Result: active

Ask: Which outcome was entered for the compound `CC(=O)Oc1ccc(-c2cc(=O)c3c(OC(C)=O)cc(OC(C)=O)cc3o2)cc1` in this test?
Result: inactive

Switching to the query record.
Ask: Which outcome was entered for the compound `CC(C)(Oc1ccc(Cl)cc1)C(=O)O` in this test?
Result: inactive
